# PROTOCOL_DESCRIPTION: Intrinsic clearance in rat liver microsomes assessed per mg protein at 0.1 uM preincubated for 10 mins followed by NADPH addition and measured up to 60 mins by UPLC-MS/MS analysis
# Assay type: ADME, Microsome
# MEASUREMENT_PARAMETERS: read-out: CLH
Hi! Could you tag entries with microsomal CLint at 0.1 µM below 100 µL/min/mg as true (1), and those at or above as false (0)? Much appreciated.

CNC(=O)Nc1ccc2c(c1)CC[C@@]21OC(=O)N(CC(=O)N2Cc3ccccc3CC[C@H]2C(F)(F)F)C1=O	false (0)
CNC(=O)Nc1ccc2c(c1)CC[C@@]21OC(=O)N(CC(=O)N2Cc3ccc(F)cc3CC[C@H]2C2CC2)C1=O	false (0)
Cn1cc(-c2ccc3c(c2)CC[C@@]32OC(=O)N(CC(=O)N3Cc4cc(F)ccc4OC[C@H]3C3CC3)C2=O)cn1	false (0)
CNC(=O)Nc1ccc2c(c1)CC[C@@]21OC(=O)N(CC(=O)N2Cc3ccc(F)cc3CC[C@H]2C(F)(F)F)C1=O	true (1)
CNC(=O)Nc1ccc2c(c1)CC[C@@]21OC(=O)N(CC(=O)N2Cc3ccccc3OC[C@H]2C)C1=O	true (1)

### Prompt Does `CNC(=O)Nc1ccc2c(c1)CC[C@@]21OC(=O)N(CC(=O)N2Cc3ccc(F)cc3CC[C@H]2C)C1=O` have microsomal CLint at 0.1 µM strictly under 100 µL/min/mg?
### Response false (0)

### Prompt Take the molecule `Cn1cc(-c2ccc3c(c2)CC[C@]32NC(=O)N(CC(=O)N3Cc4cc(F)ccc4OC[C@H]3C3CC3)C2=O)cn1` and say whether its microsomal CLint at 0.1 µM is less than 100 µL/min/mg.
### Response true (1)

###

# Test system: MV4-11
# PROTOCOL_DESCRIPTION: Antiproliferative activity against human MV4-11 cells measured after 3 days by celltiter-glo luminescence assay
# Type: functional, cell-based
# MEASUREMENT_PARAMETERS: MV4-11, 72 h
ASSAY_ENDPOINT: pIC50
Please report pIC50 as the negative decimal logarithm of the molar concentration, giving only the number.

Guide cases for pIC50, answers given:
CNC(=O)Nc1ccc2c(c1)CC[C@@]21OC(=O)N(CC(=O)N2Cc3ccc(F)cc3CC[C@H]2C2CC2)C1=O	8.40
CNC(=O)Nc1ccc2c(c1)CC[C@@]21OC(=O)N(CC(=O)N2Cc3ccccc3CC[C@H]2C(C)C)C1=O	7.97
CNC(=O)Nc1ccc2c(c1)CC[C@]21OC(=O)N(CC(=O)N2Cc3ccccc3CC[C@H]2C(F)(F)F)C1=O	7.11

### Prompt Request: pIC50, test system MV4-11, entry `CNC(=O)Nc1ccc2c(c1)CC[C@]21NC(=O)N(CC(=O)N2Cc3cc(F)ccc3OC[C@H]2C2CC2)C1=O`
### Response 8.32

### Prompt Notebook: pull reported pIC50 for MV4-11, entry `Cn1cc(-c2ccc3c(c2)CC[C@]32NC(=O)N(CC(=O)N3Cc4cc(F)ccc4OC[C@H]3C(F)(F)F)C2=O)cn1`
### Response 8.38

### Prompt Recorded pIC50 for `CCC[C@@H]1CCc2ccccc2CN1C(=O)CN1C(=O)O[C@@]2(CCc3cc(NC(=O)NC)ccc32)C1=O` with MV4-11, please?
### Response 7.92

### Prompt # get_value(readout= pIC50, system= MV4-11) for `CNC(=O)Nc1ccc2c(c1)CC[C@@]21OC(=O)N(CC(=O)N2Cc3ccc(F)cc3CC[C@H]2C)C1=O`
### Response 7.69

### Prompt Give the reported pIC50 for `CNC(=O)Nc1ccc2c(c1)CC[C@@]21OC(=O)N(CC(=O)N2Cc3ccc(F)cc3CC[C@H]2C(F)(F)F)C1=O` (system: MV4-11).
### Response 8.54

### Prompt Provide the documented pIC50 with MV4-11 as the system for `Cn1cc(-c2ccc3c(c2)CC[C@]32NC(=O)N(CC(=O)N3Cc4cc(F)ccc4OC[C@H]3C3CC3)C2=O)cn1`
### Response 8.46

### Prompt GET /values?readout=pIC50&system=MV4-11&item= `CNC(=O)Nc1ccc2c(c1)CC[C@@]21OC(=O)N(CC(=O)N2Cc3cc(F)ccc3OC[C@H]2C(F)(F)F)C1=O`
### Response 7.60

### Prompt Give pIC50 (MV4-11) of the following compound: `CNC(=O)Nc1ccc2c(c1)CC[C@@]21OC(=O)N(CC(=O)N2Cc3ccccc3OC[C@H]2C)C1=O`
### Response 7.14

### Prompt For the record `Cn1cc(-c2cc3c(cn2)[C@]2(CC3)NC(=O)N(CC(=O)N3Cc4cc(F)ccc4OC[C@H]3C(F)(F)F)C2=O)cn1` , what value of pIC50 is listed for MV4-11?
### Response 6.08

###

# STUDY_TARGET: Voltage-gated inwardly rectifying potassium channel KCNH2 (Homo sapiens, UniProt Q12809)
# Sequence (Q12809 whole entry): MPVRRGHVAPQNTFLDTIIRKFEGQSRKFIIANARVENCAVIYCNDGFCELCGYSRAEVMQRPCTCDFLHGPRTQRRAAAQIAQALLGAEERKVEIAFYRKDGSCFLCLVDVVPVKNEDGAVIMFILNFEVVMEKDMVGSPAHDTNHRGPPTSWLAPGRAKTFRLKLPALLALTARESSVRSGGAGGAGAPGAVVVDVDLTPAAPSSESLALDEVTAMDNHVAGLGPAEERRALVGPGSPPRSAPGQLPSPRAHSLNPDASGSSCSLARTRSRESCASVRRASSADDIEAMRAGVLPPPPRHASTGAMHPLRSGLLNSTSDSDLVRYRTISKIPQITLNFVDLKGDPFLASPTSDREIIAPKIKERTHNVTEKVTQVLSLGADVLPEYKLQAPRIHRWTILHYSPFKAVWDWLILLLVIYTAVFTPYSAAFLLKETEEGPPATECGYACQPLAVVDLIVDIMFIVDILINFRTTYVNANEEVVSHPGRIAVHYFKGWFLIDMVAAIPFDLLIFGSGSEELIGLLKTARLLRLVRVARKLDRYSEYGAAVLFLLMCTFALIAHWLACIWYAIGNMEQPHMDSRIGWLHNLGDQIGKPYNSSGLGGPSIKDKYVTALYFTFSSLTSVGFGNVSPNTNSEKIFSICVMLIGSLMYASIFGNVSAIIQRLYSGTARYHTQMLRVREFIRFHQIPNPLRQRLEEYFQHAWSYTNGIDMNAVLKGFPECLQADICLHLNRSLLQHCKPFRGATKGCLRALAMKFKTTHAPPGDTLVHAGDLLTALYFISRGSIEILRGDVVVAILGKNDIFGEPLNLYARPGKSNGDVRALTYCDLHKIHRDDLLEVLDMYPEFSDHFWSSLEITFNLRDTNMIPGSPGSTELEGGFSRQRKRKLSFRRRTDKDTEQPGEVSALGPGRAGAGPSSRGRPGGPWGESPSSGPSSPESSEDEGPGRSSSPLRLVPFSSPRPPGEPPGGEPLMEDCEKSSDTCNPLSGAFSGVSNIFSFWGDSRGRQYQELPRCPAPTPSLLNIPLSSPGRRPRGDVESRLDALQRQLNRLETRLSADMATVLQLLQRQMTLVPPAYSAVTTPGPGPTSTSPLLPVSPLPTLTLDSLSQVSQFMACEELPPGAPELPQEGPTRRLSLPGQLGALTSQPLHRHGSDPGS
ASSAY_ENDPOINT: IC50

### Prompt Fill in the recorded IC50 for this compound, with Voltage-gated inwardly rectifying potassium channel KCNH2 (Homo sapiens, UniProt Q12809) as test system: `Cn1cc(-c2ccc3c(c2)CC[C@]32NC(=O)N(CC(=O)N3Cc4cc(F)ccc4OC[C@H]3C(F)(F)F)C2=O)cn1`
### Response > 40 µM

###

# PROTOCOL_DESCRIPTION: AUClast in Sprague-Dawley rat at 3 mg/kg, po by LC-MS/MS analysis
# Format: ADME, organism-based
# Design: dose 3 mg/kg, time 0 - last, route oral
# MEASUREMENT_PARAMETERS: in vivo
ASSAY_ENDPOINT: AUC(0-t) (µM·h)
Numbers only; they are read as µM·h.

Worked cases, answers included:
CNC(=O)Nc1ccc2c(c1)CC[C@@]21OC(=O)N(CC(=O)N2Cc3cc(F)ccc3OC[C@H]2C(F)(F)F)C1=O	0.27
CNC(=O)Nc1ccc2c(c1)CC[C@@]21OC(=O)N(CC(=O)N2Cc3ccccc3CC[C@H]2C(F)(F)F)C1=O	0.36
CNC(=O)Nc1ccc2c(c1)CC[C@]21NC(=O)N(CC(=O)N2Cc3cc(F)ccc3OC[C@H]2C(F)(F)F)C1=O	0.054

### Prompt Form field: reported AUC(0-t) of `Cn1cc(-c2ccc3c(c2)CC[C@@]32OC(=O)N(CC(=O)N3Cc4cc(F)ccc4OC[C@H]3C(F)(F)F)C2=O)cn1`
### Response 1.04

###

# PROTOCOL_DESCRIPTION: Intrinsic clearance in human liver microsomes assessed per mg protein at 0.1 uM preincubated for 10 mins followed by NADPH addition and measured up to 60 mins by UPLC-MS/MS analysis
# Type: ADME, Microsome
# MEASUREMENT_PARAMETERS: read-out: CLH
Below, each of the compounds is paired with its reported microsomal CLint at 0.1 µM value.
The answer is to be given in µL/min/mg; state only the numeric part.

Observe how each entry below is paired with its result.
Cn1cc(-c2ccc3c(c2)CC[C@]32NC(=O)N(CC(=O)N3Cc4cc(F)ccc4OC[C@H]3C3CC3)C2=O)cn1	33.7
CNC(=O)Nc1ccc2c(c1)CC[C@@]21OC(=O)N(CC(=O)N2Cc3ccccc3CC[C@H]2C(F)(F)F)C1=O	147
Cn1cc(-c2ccc3c(c2)CC[C@@]32OC(=O)N(CC(=O)N3Cc4cc(F)ccc4OC[C@H]3C(F)(F)F)C2=O)cn1	35

### Prompt If you can, please state the reported microsomal CLint at 0.1 µM value of `CNC(=O)Nc1ccc2c(c1)CC[C@@]21OC(=O)N(CC(=O)N2Cc3ccc(F)cc3CC[C@H]2C)C1=O` .
### Response 255

### Prompt Reported microsomal CLint at 0.1 µM for `CNC(=O)Nc1ccc2c(c1)CC[C@@]21OC(=O)N(CC(=O)N2Cc3ccccc3OC[C@H]2C)C1=O` : what is it?
### Response 20.5

### Prompt Query: microsomal CLint at 0.1 µM; subject: `CNC(=O)Nc1ccc2c(c1)CC[C@@]21OC(=O)N(CC(=O)N2Cc3ccccc3CC[C@H]2C(C)C)C1=O`
### Response 209

### Prompt Look up microsomal CLint at 0.1 µM: `CNC(=O)Nc1ccc2c(c1)CC[C@]21NC(=O)N(CC(=O)N2Cc3cc(F)ccc3OC[C@H]2C2CC2)C1=O`
### Response 9.4

### Prompt What does the record list as microsomal CLint at 0.1 µM for `CNC(=O)Nc1ccc2c(c1)CC[C@@]21OC(=O)N(CC(=O)N2Cc3ccc(F)cc3CC[C@H]2C2CC2)C1=O` ?
### Response 112

### Prompt I am curious: what microsomal CLint at 0.1 µM value has been reported for `CNC(=O)Nc1ccc2c(c1)CC[C@]21NC(=O)N(CC(=O)N2Cc3cc(F)ccc3OC[C@H]2C(F)(F)F)C1=O` ?
### Response 10.2
